# credit: patent US10428140B2

Target: T1, human EphA4 (Homo sapiens, UniProt P54764)
T1 construct: made in house; not restated for the human SEAP-His protein
T1 sequence (P54764 20-547): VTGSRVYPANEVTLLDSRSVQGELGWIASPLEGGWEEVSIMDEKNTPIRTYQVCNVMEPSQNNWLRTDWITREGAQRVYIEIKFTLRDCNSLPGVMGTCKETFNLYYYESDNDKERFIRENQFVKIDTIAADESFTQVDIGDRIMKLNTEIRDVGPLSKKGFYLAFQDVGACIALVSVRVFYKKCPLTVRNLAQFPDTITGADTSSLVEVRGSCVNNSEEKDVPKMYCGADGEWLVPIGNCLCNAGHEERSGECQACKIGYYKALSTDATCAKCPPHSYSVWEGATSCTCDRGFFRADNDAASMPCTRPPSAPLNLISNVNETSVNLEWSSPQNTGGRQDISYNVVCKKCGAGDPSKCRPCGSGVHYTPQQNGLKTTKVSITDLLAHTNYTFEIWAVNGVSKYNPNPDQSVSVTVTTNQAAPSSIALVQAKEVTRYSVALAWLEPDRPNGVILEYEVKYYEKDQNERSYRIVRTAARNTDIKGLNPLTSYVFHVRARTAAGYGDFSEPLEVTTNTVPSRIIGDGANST
Assay: Selectivity ELISA of humanized antibodies for human Eph receptor
Format: binding
Conditions: coated protein 1 nM; reference set to 100%
QUANTITY: hEphA4-SEAP-: absorbance at 450 nm, percentage with respect to hEphA4-SEAP-His as 100%

Challenge: Please look at this molecule and report its hEphA4-SEAP-: absorbance at 450 nm, percentage with respect to hEphA4-SEAP-His as 100%: 88 (antibody, V domains shown, constant regions without entry; synthetic humanized antibody light chain variable region sequence; synthetic humanized antibody heavy chain variable region sequence) VL: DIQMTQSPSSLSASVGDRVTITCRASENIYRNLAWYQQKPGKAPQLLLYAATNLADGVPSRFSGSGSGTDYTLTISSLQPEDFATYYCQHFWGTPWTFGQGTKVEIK VH: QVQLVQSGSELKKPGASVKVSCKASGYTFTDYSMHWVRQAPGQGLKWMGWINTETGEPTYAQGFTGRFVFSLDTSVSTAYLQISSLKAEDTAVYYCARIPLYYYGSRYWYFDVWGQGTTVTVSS
Response given: 100%
